molecular target: T1, soluble form of GPC3 core protein (human, UniProt P51654 25-563); test: competitive ELISA on coated soluble GPC3 core protein; labelled competitor biotin-M1E7;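 further: Biotin-labelled antibody added as 10 µL at 10 µg/mL for 1 h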
T1 construct: not shown: His tag added to the C-terminus
T1 sequence (P51654 25-563 S495A/S509A, form in doubt): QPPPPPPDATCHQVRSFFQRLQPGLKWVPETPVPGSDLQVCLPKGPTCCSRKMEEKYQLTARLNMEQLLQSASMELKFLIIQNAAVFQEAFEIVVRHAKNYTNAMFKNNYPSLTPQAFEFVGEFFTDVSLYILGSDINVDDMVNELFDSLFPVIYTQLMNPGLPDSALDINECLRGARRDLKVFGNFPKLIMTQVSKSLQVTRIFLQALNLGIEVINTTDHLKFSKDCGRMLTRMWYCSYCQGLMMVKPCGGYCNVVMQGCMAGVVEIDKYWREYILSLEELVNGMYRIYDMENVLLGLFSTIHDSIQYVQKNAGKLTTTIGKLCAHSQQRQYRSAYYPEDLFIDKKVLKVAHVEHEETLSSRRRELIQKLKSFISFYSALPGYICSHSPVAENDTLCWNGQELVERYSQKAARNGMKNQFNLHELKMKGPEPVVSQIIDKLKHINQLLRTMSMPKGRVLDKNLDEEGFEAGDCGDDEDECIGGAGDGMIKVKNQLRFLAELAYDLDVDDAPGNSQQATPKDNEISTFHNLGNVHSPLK
Parameter Inhibition of the binding of indicated biotin-Mab to sGPC3 core (%): see the listing below.
Numeric only. Scale: %

M1E7 (antibody, human IgG1, kappa, V domains shown, Mouse monoclonal from hybridoma; also called M1E07) VH: EVQLQQSGPELVKPGASVKISCKASGYSFTGYYMHWVKQSPEKSLEWIGEINPSTGGTTYNQKFKAKATLTVDKSSSTAYMQLKSLTSEDSAVYYCARRGGLTGTSFFAYWGQGTLVTVSA VL: DVVMTQTPLSLSVTIGQPASISCKSSQSLLYSNGKTYLNWLQQRPGQAPKHLMYQVSKLDPGIPDRFSGSGSETDFTLKISRVEAEDLGVYYCLQSTYYPLTFGAGTKLELKR    83.9
M10D2 (antibody, V domains shown, Mouse monoclonal from hybridoma) VH: QVQLQQPGAELVKPGASVKLSCKASGYTFTSYWMHWVKQRPGQGLEWIGEIDPSDSYTYYNQKFRGKATLTVDKSSNTAYMQLSSLTSEDSAVYYCSRSNLGDGHYRFPAFPYWGQGTLVTVSA VL: DIVLTQSPATLSVTPGDRVSLSCRASHSISNFLHWYPQKSHESPRLLIKYASQSISGIPSRFSGNGSGTDFTLSINSVETEDFGMYFCQQSNIWSLTFGAGTKLELK    0.6

Ask | Which value of Inhibition of the binding of indicated biotin-Mab to sGPC3 core (%) has been reported for M18D4 (antibody, human IgG1, kappa, V domains shown, Mouse monoclonal from hybridoma) VH: EVQLQQSGTVLARPGASVKMSCKASGYTFTGYWMRWVKQRPGQGLEWIGAIYPGNSDTTYNQKFKGKAKLTAVTSVSTAYMELSSLTNEDSAVYYCSRSGDLTGGFAYWGQGTLVTVST VL: DIVMTQAAFSNPVTLGTSTSISCRSSKSLLHSNGITYLYWYLQKPGQSPQLLIYQMSNLASGVPDRFSSSGSGTDFTLRISRVEAEDVGVYYCAQNLELPYTFGSGTKLEIKR in the records?
Reply | 0.5
